Potency reference
System: Mus musculus
Experiment: Relative topical anti inflammatory activity was measured in mice by comparing with cumulative potency of betamethasone valerate by using croton oil ear assay
Format: functional
Give your answer as a number; write no unit.

Some solved cases for reference:
| compound | endpoint-value |
| --- | --- |
| CCCCC(=O)O[C@]1(C(=O)CO)[C@@H](C)C[C@H]2[C@@H]3CCC4=CC(=O)C=C[C@]4(C)[C@@]3(F)[C@@H](O)C[C@@]21C [BETAMETHASONE VALERATE] | 100 |
| CC(=O)OCC(=O)[C@@]1(O)[C@@H](C)CC2C3CCC4=CC(=O)C=C[C@]4(C)C3C(O)C[C@@]21C (stereo partly drawn) | 26 |

Consider now this further compound.
Form field: Potency recorded for CCC(=O)OCC(=O)[C@@]1(OC(=O)CC)[C@@H](C)CC2C3C(C(O)C[C@@]21C)[C@@]1(C)C=CC(=O)C=C1C[C@H]3F (stereo partly drawn) with Mus musculus (enter value)
69

* * *

Test system: Mus musculus
Experiment: Relative topical anti inflammatory activity was measured in mice by comparing with cumulative potency of betamethasone valerate by using croton oil ear assay
Type: functional
outcome-measure: Potency
Give your answer as a number; write no unit.

| compound | outcome-measure | endpoint-value |
| --- | --- | --- |
| CCC(=O)OCC(=O)[C@@]1(OC(=O)CC)[C@H](C)CC2C3C(C(O)C[C@@]21C)[C@@]1(C)C=CC(=O)C=C1C[C@H]3F (stereo partly specified) | Potency | 78 |
| CCC(=O)OCC(=O)[C@@]1(OC(=O)CC)[C@@H](C)CC2C3CCC4=CC(=O)C=C[C@]4(C)C3C(O)C[C@@]21C (stereo partly specified) | Potency | 76 |
| CCC(=O)OCC(=O)[C@@]1(OC(=O)CC)[C@@H](C)C[C@H]2[C@@H]3CCC4=CC(=O)C=C[C@]4(C)[C@@]3(F)[C@@H](O)C[C@@]21C [BETAMETHASONE DIPROPIONATE] | Potency | 165 |
| CC(=O)OCC(=O)[C@@]1(O)[C@@H](C)CC2C3C(C(O)C[C@@]21C)[C@@]1(C)C=CC(=O)C=C1C[C@H]3I (stereo partly specified) | Potency | 54 |
| CCC(=O)OCC(=O)[C@@]1(OC(=O)CC)[C@@H](C)CC2C3C(C(O)C[C@@]21C)[C@@]1(C)C=CC(=O)C=C1C[C@H]3Br (stereo partly specified) | Potency | 186 |

Consider now this further compound.
Any idea what its Potency is? The compound is CCC(=O)OCC(=O)[C@@]1(OC(=O)CC)[C@@H](C)CC2C3C(C(O)C[C@@]21C)[C@@]1(C)C=CC(=O)C=C1C[C@H]3I (stereo partly specified)
103

* * *

Test system: Mus musculus
Assay: Relative topical anti inflammatory activity was measured in mice by comparing with cumulative potency of betamethasone valerate by using croton oil ear assay
Format: functional
Potency reference
Give your answer as a number; write no unit.

Some solved cases for reference:
| molecule | Potency |
| --- | --- |
| CC(=O)OCC(=O)[C@@]1(O)[C@H](C)CC2C3C=CC4=CC(=O)C=C[C@]4(C)C3C(O)C[C@@]21C (some centres not stated) | 4 |
| CCC(=O)OCC(=O)[C@@]1(OC(=O)CC)[C@H](C)CC2C3CCC4=CC(=O)C=C[C@]4(C)C3C(O)C[C@@]21C (some centres not stated) | 74 |
| CC(=O)OCC(=O)[C@@]1(O)[C@H](C)CC2C3CCC4=CC(=O)C=C[C@]4(C)C3C(O)C[C@@]21C (some centres not stated) | 10 |
| CC(=O)OCC(=O)[C@@]1(O)[C@H](C)CC2C3C(C(O)C[C@@]21C)[C@@]1(C)C=CC(=O)C=C1C[C@H]3Cl (some centres not stated) | 32 |
| CC(=O)OCC(=O)[C@@]1(O)[C@@H](C)CC2C3C(C(O)C[C@@]21C)[C@@]1(C)C=CC(=O)C=C1C[C@H]3Cl (some centres not stated) | 81 |

Any idea what its Potency is? The molecule is CCC(=O)OCC(=O)[C@@]1(OC(=O)CC)[C@@H](C)CC2C3C=CC4=CC(=O)C=C[C@]4(C)C3C(O)C[C@@]21C (some centres not stated)
57

Consider next the molecule CC(=O)OCC(=O)[C@@]1(O)[C@H](C)CC2C3C(C(O)C[C@@]21C)[C@@]1(C)C=CC(=O)C=C1C[C@H]3Br (some centres not stated) in the same way.
20
